- Test name: High Throughput Screening for Foot and Mouth Disease Virus Antivirals; also: read-out not given here; nearly all actives have a fitted effect of over 45% in size
- Test context: FMDV antiviral cell-based qHTS; series mostly up to 57.9 µM
About 5,100 (1.2%) of roughly 410,000 compounds were called active. Another 8% or so got no clear call; they are omitted. Calls follow the shape of the full dose curve; tested in HEK293T cells. This excerpt belongs to a sample that is enriched for actives.
Mark one answer only. Choices: active, inactive

> print(dat)
                                 molecule       cat
1  CN(C)C(=O)c1ccc(-c2cncnc2Nc2ccccc2)cc1  inactive

Prompt: I would be grateful if you could indicate the recorded call for COc1ccc(CCNc2ncnc3nc[nH]c23)cc1OC .
Completion: active

Prompt: Quick one: CCOC(=O)N1CCN(C(=O)C2CCN(c3ncnc4c3sc3cccc(F)c34)CC2)CC1
Completion: active

----------
- Test name: High Throughput Screening for Foot and Mouth Disease Virus Antivirals; also: read-out not given here; nearly all actives have a fitted effect of over 45% in size
- Test context: FMDV antiviral cell-based qHTS; series mostly up to 57.9 µM
In all, about 410,000 compounds went through this assay and about 5,100 (1.2%) were called active. Roughly 8% stayed inconclusive and do not appear here. Calls follow the shape of the full dose curve; tested in HEK293T cells. The full list was thinned out, with actives kept by preference.
Mark one answer only. Choices: active, inactive

> print(dat)
                                   compound       cat
1   CCOc1ccc(-c2ccc(SCC(=O)N3CCOCC3)nn2)cc1  inactive
2  Cc1cccc(NC(=O)Cn2c(C(F)(F)F)nc3ccccc32)c1C  inactive
3  CC1Oc2ccccc2N(Cc2cccnc2)C1=O (configuration not stated)  inactive
4  COc1ccccc1CNC(=O)c1ccc(Cl)c(S(=O)(=O)N2CCCC2)c1  inactive

Prompt: I would be grateful if you could indicate the recorded call for CC(OC(=O)CN1C(=O)C2CCCCC2C1=O)C(=O)Nc1ncc(Cl)cc1Cl (configuration not stated) .
Completion: inactive

Prompt: Quick one: C=CC(C1=CC(=O)C=CC1=O)c1ccc(O)cc1 (configuration not stated)
Completion: inactive

Prompt: Quick one: O=C(c1cc(C(F)(F)F)cc(C(F)(F)F)c1)N1CCC2(CC1)CN(c1ccncc1)C2
Completion: inactive

Prompt: Quick one: CC1C(=O)N(Cc2ccccc2)c2ccccc2N1C(=O)c1ccccc1 (configuration not stated)
Completion: active

Prompt: Quick one: CCNc1ncc2ncc(=O)n(Cc3cccc(OC)c3)c2n1
Completion: inactive

Prompt: Quick one: COc1ccccc1N1CCN(C(=O)c2ccc(Cl)c(S(=O)(=O)N3CCCC3)c2)CC1
Completion: active

Prompt: Quick one: COc1ccc(CN(C)CCn2cc(C(=O)N3CCSCC3)nn2)cc1C
Completion: inactive

Prompt: Quick one: O=C(c1ccccc1)c1ccc2nc(N3CCCCC3)c3nncn3c2c1
Completion: active

Prompt: Quick one: COCCNC(=O)c1ccc2c(c1)N=C(C)c1cc(C)ccc1S2
Completion: inactive

----------
- Test name: High Throughput Screening for Foot and Mouth Disease Virus Antivirals; also: read-out not given here; nearly all actives have a fitted effect of over 45% in size
- Test context: FMDV antiviral cell-based qHTS; series mostly up to 57.9 µM
Out of some 410,000 compounds screened, about 5,100 (1.2%) were called active. Inconclusive results (about 8%) are left out. Calls come from the whole dose curve; tested in HEK293T cells. For the sample, actives were picked, then their nearest neighbours and some compounds at random.
Mark one answer only. Choices: 1 = active, 0 = inactive

Prompt: I would be grateful if you could indicate the recorded call for COC(C/C=C/C(=O)[C@@H](C)OCc1ccccc1)OC .
Completion: 1

Prompt: Quick one: COC(C[C@H](O)CC(=O)[C@@H](C)OCc1ccccc1)OC
Completion: 0

Prompt: Quick one: COCCn1c(=O)c(C)nc2cnc(N(C)C)nc21
Completion: 0

Prompt: Quick one: COC(C[C@@H]1O[C@@H]1C(=O)[C@H](C)OCc1ccccc1)OC
Completion: 0

Prompt: Quick one: CCCCCCCCCCCC(=O)O[C@H](CC(=O)O)C[N+](C)(C)C
Completion: 0

Prompt: Quick one: COc1ccc(-c2csc3nc(-c4ccccc4F)oc(=O)c23)cc1OC
Completion: 1
